biological target: human adenosine A1 receptor (Homo sapiens (Human), UniProt P30542); test: Adenosine receptor binding assay, A1 ([3H]DPCPX inhibition binding on membranes); settings: 1 nM [3H]DPCPX, 25° C., 1 h; Ki from IC50 by Cheng-Prusoff
Sequence (P30542 whole entry): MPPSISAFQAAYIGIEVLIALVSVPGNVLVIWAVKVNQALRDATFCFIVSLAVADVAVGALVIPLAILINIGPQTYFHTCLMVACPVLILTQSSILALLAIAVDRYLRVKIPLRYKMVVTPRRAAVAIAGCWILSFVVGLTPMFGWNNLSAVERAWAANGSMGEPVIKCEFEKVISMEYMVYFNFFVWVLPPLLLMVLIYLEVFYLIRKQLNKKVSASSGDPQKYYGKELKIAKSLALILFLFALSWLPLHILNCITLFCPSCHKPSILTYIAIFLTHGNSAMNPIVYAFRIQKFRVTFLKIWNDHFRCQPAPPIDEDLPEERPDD
Measurement name: A1 pKi

Compound: C[C@@H]1CN(c2c(-c3ccccc3)nc(N)n3c(=O)n(Cc4ccc(F)cn4)nc23)C[C@H](C)O1
A1 pKi: 5.9

Compound: Cc1ocnc1Cn1nc2c(-c3cc(Cl)c4[nH]ncc4c3)c(-c3ccccc3)nc(N)n2c1=O
A1 pKi: 8.7

Compound: C[C@@H]1CC(c2c(-c3ccccc3)nc(N)n3c(=O)n(CCC(F)(F)F)nc23)=C[C@H](C)O1 (relative stereo)
A1 pKi: 6.3

Compound: Cc1cc(-c2c(-c3ccccc3)nc(N)n3c(=O)n(Cc4ccc(F)cn4)nc23)cc2nc[nH]c12
A1 pKi: 7.0

Compound: Cc1ocnc1Cn1nc2c(-c3cc(C)c4[nH]ncc4c3)c(-c3ccccc3)nc(N)n2c1=O
A1 pKi: 8.8

Compound: Cc1ocnc1Cn1nc2c(-c3cc(C)c4[nH]ccc4c3)c(-c3ccccc3)nc(N)n2c1=O
A1 pKi: 7.2

Compound: CCCn1nc2c(N3C[C@@H](C)O[C@@H](C)C3)c(-c3ccc(F)cc3)nc(N)n2c1=O
A1 pKi: 6.4

Compound: Cc1ccc(Cn2nc3c(-c4cc(C)c5ncoc5c4)c(-c4ccc(F)cc4)nc(N)n3c2=O)nc1
A1 pKi: 6.9

Compound: Cc1ocnc1Cn1nc2c(-c3cc(C)c4[nH]ncc4c3)c(-c3ccc(F)cc3)nc(N)n2c1=O
A1 pKi: 8.4

Compound: Cc1nc(Cn2nc3c(-c4cc(C)c5ncoc5c4)c(-c4ccc(F)cc4)nc(N)n3c2=O)c(C)o1
A1 pKi: 7.7

Compound: Cc1cc(-c2c(-c3ccc(F)cc3)nc(N)n3c(=O)n(CCC(F)(F)F)nc23)cc2ocnc12
A1 pKi: 6.5

Compound: COc1ncccc1Cn1nc2c(N3C[C@@H](C)O[C@@H](C)C3)c(-c3ccccc3)nc(N)n2c1=O
A1 pKi: 6.4
